All values here come from the supplement of paper PMC6555819.

sequences and their reported PBM binding z-score
# System: THRa:RXRa (NR concentration 90 nM, RXRa partner concentration 90 nM)
# Experiment: PBM binding z-score (relative to random genomic background probes); higher = stronger binding; sequences stand for … in GC…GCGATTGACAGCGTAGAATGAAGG
Respond with the number and no other words.

Examples with answers:
TCATATACGTAAACAGGTGAAAGTCCGTAAGTTA : 0.985
ATATGTAGGTTAAGGGTCATTCGGGTTGGTTCGC : 3.39
TCTATTGGTTGATTAGGGCAACCGAAACAGCGGA : 0.871
TCTGCTAGGTCAACGATGGTCAGCTCATCTGCTA : 3.15
TAGCCTAGGTGATTCAGGGGCCAGTATAGAAAGC : 0.651
ATATGTAGGTTATCCGGTCATTCAGTTTGCGCAT : 1.67

Turning now to a further record.
Item under review: CAAACTAGGTCAAAGTTCAAAGTCGAGCCAACCA . Reported PBM binding z-score? 4.23

###

# Test system: THRa homodimer (NR concentration 90 nM)
# Experiment: PBM binding z-score (relative to random genomic background probes); higher = stronger binding; sequences stand for … in GC…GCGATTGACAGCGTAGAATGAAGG
Measured Property: PBM binding z-score
Respond with the number and no other words.

CCTAGTTGGTCAAGGTCAAACACGCTATAGGTAC : 3.39
GTACCAAGGTGAGTAGGTCGTTGATGAGTAGGCG : 0.258
GCGACTGGGGCAAAGCGGGTTACCATAAGGTTGG : 0.0771
GGAACGAGGGCAAGTTGGTAGCAGAGTTTGATGG : 0.26
TGCATGAGGTTAAAGATCAGGGAACGTGGCGTCG : 0.949

Item under review: AGAACGAGGGCACACTGAGTTGATAGCAGAGTAG . Reported PBM binding z-score? 0.167

Item under review: ACTAGCAGGCCAAGCTTGGGTCACTCAAACAAAG . Reported PBM binding z-score? 0.602

Item under review: TATACAGGGTCAAAGCCCAGAGTACGAATGTCGA . Reported PBM binding z-score? 0.46

Item under review: TCTTGTTGATCAAGCAGGTTAAGAAAGCCTGAGT . Reported PBM binding z-score? -0.1

Item under review: CCTATTAGTTGACCATATGGGCAACCGAAGCTCG . Reported PBM binding z-score? 0.303

Item under review: ACTATTAGTTGACTTAGGGCCACCGATACGACGC . Reported PBM binding z-score? 0.956

###

# System: THRa homodimer (NR concentration 90 nM)
# Experiment: PBM binding z-score (relative to random genomic background probes); higher = stronger binding; sequences stand for … in GC…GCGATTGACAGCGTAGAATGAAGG
Classification field: enter Criterion met for PBM binding z-score values not below 0.8, Criterion not met for values below it.

GCTTGCAGGCCATTTGGGTCACTCAATGACGGGC : Criterion not met
TCATATAGGTAACTGCTAGGTGAAAGTCCGATCT : Criterion not met
TGATATAGGTAAAAGGTGAAAGTCGGTGTGGTAA : Criterion not met
CCTATTACTTGACCATAAGGGCAACCGAAGCTCG : Criterion met
GGAACGAGTGCAAGTTGATAGCAGAGTTTGATGG : Criterion not met
CCTACTGGGCCATTCGGAGGTCATTGATCATATG : Criterion met

Given the entry AGTCAAAGTTTACTAGGTAACGTAAGATTCAGCT , answer whether its PBM binding z-score meets or surpasses 0.8. Criterion not met

###

# Tested on: RARb homodimer (NR concentration 270 nM)
# Experiment: PBM binding z-score (relative to random genomic background probes); higher = stronger binding; sequences stand for … in GC…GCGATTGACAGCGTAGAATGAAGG
Classification field: enter condition met for PBM binding z-score values not below 1, condition not met for values below it.

Solved entries (count: 5):
TCTGCGAGGTCAGTTGGTCAGCTAACGAGCTGCC : condition met
CAAACTAGGTCACCGGAAGGTCTAAGTCCGCATG : condition met
CCTACTGGGCCAGCAGGTCATTGATATCAACGTT : condition met
CCTTACGGGTCACTGACAGGTTATAGCTTTTGGA : condition met
GATACAGGGTCAAGTCCAGAGTACGCGTATTGAT : condition met

Given the entry GCAGACAGGTGAAACGCAGTTAACTCAGGGTGGC , answer whether its PBM binding z-score meets or surpasses 1. condition not met

Given the entry CCGACTGGTGCATAAGGTTACCATAAGCCAGCCC , answer whether its PBM binding z-score meets or surpasses 1. condition met

Given the entry GAAACAGGGTCAAGGCCAGAGTACGCGTATTGAT , answer whether its PBM binding z-score meets or surpasses 1. condition met

Given the entry CCTACTGGGCCATGAGGTCATTGATATCAACGTT , answer whether its PBM binding z-score meets or surpasses 1. condition met

Given the entry TCTTGTAGATCAAGCAGGTTAAGAATGCCTGAGT , answer whether its PBM binding z-score meets or surpasses 1. condition not met

Given the entry AGAATGAGGTTATACGCAGATCAGGGAAGAAAGT , answer whether its PBM binding z-score meets or surpasses 1. condition not met

Given the entry TCTAGTTGGTCAAAGATCACACACTCGAAATGCG , answer whether its PBM binding z-score meets or surpasses 1. condition not met

Given the entry TCGAGTAGGTTAGCAATGGGGCATTCAGCTTTCT , answer whether its PBM binding z-score meets or surpasses 1. condition not met

Given the entry CCGAATGGGGCAGAAAGGTTACCATACCATCCGG , answer whether its PBM binding z-score meets or surpasses 1. condition met

Given the entry CCGACTGGGGCAGAAAGGTCACCATACCATCCGG , answer whether its PBM binding z-score meets or surpasses 1. condition met

Given the entry ATCGAAAGGTCGAAGGTGAGTAGACCCACCCGAA , answer whether its PBM binding z-score meets or surpasses 1. condition met

Given the entry TCTTGTAGATCAATAGAGGTTAGGAAAGTGCGCT , answer whether its PBM binding z-score meets or surpasses 1. condition not met

Given the entry GCGACTGGGGCAAAGCAGGTTACAATAAGGTTGG , answer whether its PBM binding z-score meets or surpasses 1. condition met

Given the entry CCTCGGAGGACAGGAGGTCAGAGCTGTCCGCTTT , answer whether its PBM binding z-score meets or surpasses 1. condition met

Given the entry CCAGACAGGTGAGAAGGTAACTCGGCCTCGATTA , answer whether its PBM binding z-score meets or surpasses 1. condition not met

Given the entry ATACCAAGGTGATCGGGAGGTCGTTGATACTAAC , answer whether its PBM binding z-score meets or surpasses 1. condition met

Given the entry GGAACGAGGGGATTCGAGTTGATAGCATGGCGAT , answer whether its PBM binding z-score meets or surpasses 1. condition not met

Given the entry GCTGCTAGGTCAACTGATGGTCAGCTCAAGCTCG , answer whether its PBM binding z-score meets or surpasses 1. condition met

###

# System: PPARg DBDmut IVT, anti-PPARg (DBD mutation: PPARg1 K132A/R137A, NR concentration 270 nM)
# Experiment: PBM binding z-score (relative to random genomic background probes); higher = stronger binding; sequences stand for … in GC…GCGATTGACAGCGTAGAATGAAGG
Classification field: enter 1 for PBM binding z-score values not below -0.8, -1 for values below it.

ATTATTAGTTGACTTAGGGCAACCGATACGACGC : 1
TCAGACAGGGGAAGGTAACTCAGGTACGCAGTCG : 1
ACTAGCAGGCCACGTTTGGGTCACTCAAACAAAG : 1
ACTAGCAGCCCAAGTTTGGGTCACTCAAACAAAG : -1
ATCGAAAGCTCGACGAGGTGAGTATACACCGTTT : 1

Consider now this further sequence.
Given the entry CGAACTAGGTCAGAACAGGATAGTGAAGGATGAT , answer whether its PBM binding z-score meets or surpasses -0.8. 1

###

sequences and their reported PBM binding z-score
# System: PPARg:RXRa (NR concentration 180 nM, RXRa partner concentration 90 nM)
# Experiment: PBM binding z-score (relative to random genomic background probes); higher = stronger binding; sequences stand for … in GC…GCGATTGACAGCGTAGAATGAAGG
Respond with the number and no other words.

Examples with answers:
CCGACTGGGGCAAAGGTTACCCTACTCAGTACGA : 10.4
TGTCAAAGTTCAAAGGTAACGCAAGTATCCACAC : 9.31

Turning now to a further record.
Item under review: CAGCCTTGGTCAGGGCCAGTATAGGAGGAACGTT . Reported PBM binding z-score? -0.0449

###

# System: PPARg:RXRa 90nM:30nM, anti-RXR (NR concentration 90 nM, RXRa partner concentration 30 nM)
# Experiment: PBM binding z-score (relative to random genomic background probes); higher = stronger binding; sequences stand for … in GC…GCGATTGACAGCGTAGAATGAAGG
Classification field: enter y for PBM binding z-score values not below 2, n for values below it.

Solved entries (count: 5):
TGAATGAGGTTAAAAGATCAGGGAACGTTGCAAA : y
TGTTGTAGATCAAAGGTTAAGAAAGCCGAAGCCT : y
GATACTGGGTCAAGGCCAGAGTACGCGTATTGAT : y
TCTTTTAGTTGAAGGGCAACCGACGAGTCCGTTT : y
CCTCGTAGGACAGAAGGTCAGAGCTGTCCGCTTT : n

Given the entry CGTCCAAGGTCGAGGTCAGTGAAAGAGACTCGAA , answer whether its PBM binding z-score meets or surpasses 2. n

Given the entry CCAGACAAGTGAGAAGGTAACTCAGCCTCGATTA , answer whether its PBM binding z-score meets or surpasses 2. n

Given the entry AGAACGGGGGCACGCTGAGTTGATAGCAGAGTAG , answer whether its PBM binding z-score meets or surpasses 2. y

Given the entry TAGCCTAGGTCATCCAGGGGCCAGTATAGAAAGC , answer whether its PBM binding z-score meets or surpasses 2. n
